target: Melanin-concentrating hormone receptor 1 (Homo sapiens, UniProt Q99705); test: Binding affinity to human MCHr1 from neuronal IMR32 cells; type: cell-based, IMR-32
Sequence (Q99705 whole entry): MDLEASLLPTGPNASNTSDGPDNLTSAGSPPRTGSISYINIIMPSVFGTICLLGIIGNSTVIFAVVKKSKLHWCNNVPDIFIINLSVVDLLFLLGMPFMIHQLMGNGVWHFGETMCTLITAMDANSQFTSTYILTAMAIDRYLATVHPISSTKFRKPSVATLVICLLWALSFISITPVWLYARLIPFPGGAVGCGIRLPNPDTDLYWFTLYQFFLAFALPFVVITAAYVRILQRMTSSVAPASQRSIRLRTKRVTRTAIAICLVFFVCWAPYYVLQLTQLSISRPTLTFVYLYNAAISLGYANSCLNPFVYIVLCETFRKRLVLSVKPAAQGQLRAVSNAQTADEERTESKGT
endpoint: IC50 (nM)

P = COc1ccc2[nH]nc(NC3CCN(Cc4ccc5c(c4)OCO5)CC3)c2c1
Q = Clc1ccc2c(c1)c(NC1CCN(Cc3ccc4c(c3)OCO4)CC1)nn2Cc1ccccc1
R = COc1cccc2[nH]nc(NC3CCN(Cc4ccc5c(c4)OCO5)CC3)c12
S = COc1cccc(CN2CCC(Nc3[nH]nc4ccc(Cl)cc34)CC2)c1
T = O=C(c1cccnc1)n1nc(NC2CCN(Cc3ccc4c(c3)OCO4)CC2)c2cc(Cl)ccc21
Sort the listed entries by IC50, smallest first. Output the labels ranked as instructed.
P, T, Q, S, R
(P: 8 nM, T: 20 nM, Q: 40 nM, S: 150 nM, R: 330 nM)

I = Clc1ccc2c(c1)c(NC1CCN(Cc3ccc4c(c3)OCO4)CC1)nn2Cc1ccccn1
II = O=C(c1cscn1)n1nc(NC2CCN(Cc3ccc4c(c3)OCO4)CC2)c2cc(Cl)ccc21
III = Clc1ccc2[nH]nc(NC3CCN(Cc4ccc5ccccc5c4)CC3)c2c1
Sequence the entries by IC50, beginning with the highest number. Output the labels ranked as instructed.
III, II, I

1 = Clc1ccc2[nH]nc(NC3CCN(Cc4ccc5c(c4)OCCO5)CC3)c2c1
2 = Cc1ccc2[nH]nc(NC3CCN(Cc4ccc5c(c4)OCO5)CC3)c2c1
Between the entries labeled 1 and 2 , whose measured IC50 is lower? Identify your pick by its label.
1
(1: 70 nM, 2: 110 nM)

* * *

experiment: AUC in DIO mice plasma at 10 mg/kg, po; type: ADME, organism-based; design: dose 10 mg/kg, route oral; conditions: mouse
endpoint: AUC (ng·h/mL)

> print(dat)
                               entry.smiles  value.measured
1  O=C(c1cccnc1)n1nc(NC2CCN(Cc3ccc4c(c3)OCO4)CC2)c2cc(Cl)ccc21             164

a = O=[N+]([O-])c1ccc2[nH]nc(NC3CCN(Cc4ccc5c(c4)OCO5)CC3)c2c1
b = COc1ccc2[nH]nc(NC3CCN(Cc4ccc5c(c4)OCO5)CC3)c2c1
For the two items a and b , which reports the higher AUC value? Identify your pick by its label.
a

P = Clc1ccc2[nH]nc(NC3CCN(Cc4ccc5c(c4)OCO5)CC3)c2c1
Q = O=C(c1cscn1)n1nc(NC2CCN(Cc3ccc4c(c3)OCO4)CC2)c2cc(Cl)ccc21
Between the entries labeled P and Q , whose measured AUC is lower? Identify your pick by its label.
Q
(Q: 400 ng·h/mL, P: 8760 ng·h/mL)

* * *

target: Melanin-concentrating hormone receptor 1 (Homo sapiens, UniProt Q99705); assay: Functional antagonism of MCH-mediated calcium release by FLIPR using human MCHr1 from neuronal IMR32 cells; assay type: cell-based, IMR-32
endpoint: IC50 (nM)

Here's what some known entries look like.
> print(dat)
                               entry.smiles                             system.tested  endpoint  unit.annotation  value.measured
1  Clc1ccc2[nH]nc(NC3CCN(Cc4ccc5c(c4)OCO5)CC3)c2c1  Melanin-concentrating hormone receptor 1 (Homo sapiens, UniProt Q99705)      IC50               nM             260
2  Clc1ccc2[nH]nc(NC3CCN(Cc4ccc5ccccc5c4)CC3)c2c1  Melanin-concentrating hormone receptor 1 (Homo sapiens, UniProt Q99705)      IC50               nM            1820
3  Cc1ccc(CN2CCC(Nc3[nH]nc4ccc(Cl)cc34)CC2)cc1C  Melanin-concentrating hormone receptor 1 (Homo sapiens, UniProt Q99705)      IC50               nM            1380

I = COc1ccc(CN2CCC(Nc3[nH]nc4ccc(Cl)cc34)CC2)c(F)c1
II = Cc1ccc2[nH]nc(NC3CCN(Cc4ccc5c(c4)OCO5)CC3)c2c1
III = COc1ccc2c(c1)c(NC1CCN(Cc3ccc4c(c3)OCO4)CC1)nn2C
IV = Clc1ccc2c(c1)c(NC1CCN(Cc3ccc4c(c3)OCO4)CC1)nn2Cc1ccccn1
V = COc1ccc2[nH]nc(NC3CCN(Cc4ccc5c[nH]nc5c4)CC3)c2c1
Sequence the entries by IC50, beginning with the highest number. Output the labels ranked as instructed.
I, II, IV, V, III
(I: 5200 nM, II: 1060 nM, IV: 550 nM, V: 380 nM, III: 190 nM)

* * *

assay: AUC in DIO mice brain at 10 mg/kg, po; assay type: ADME, organism-based; set-up: dose 10 mg/kg, route oral; conditions: mouse
endpoint: AUC (ng·h/mL)

> print(dat)
                               entry.smiles  endpoint  value.measured
1  COc1ccc2[nH]nc(NC3CCN(Cc4ccc5c(c4)OCO5)CC3)c2c1       AUC           28500

P = O=[N+]([O-])c1ccc2[nH]nc(NC3CCN(Cc4ccc5c(c4)OCO5)CC3)c2c1
Q = Clc1ccc2c(c1)c(NC1CCN(Cc3ccc4c(c3)OCO4)CC1)nn2Cc1cccnc1
R = Clc1ccc2[nH]nc(NC3CCN(Cc4ccc5c(c4)OCO5)CC3)c2c1
Ascending sort, AUC. Output the labels ranked as instructed.
Q, P, R

* * *

target: Melanin-concentrating hormone receptor 1 (Homo sapiens, UniProt Q99705); assay: Functional antagonism of MCH-mediated calcium release by FLIPR using human MCHr1 from neuronal IMR32 cells; assay type: cell-based, IMR-32
pIC50: −log10 of the molar value.
endpoint: pIC50

> print(dat)
                               entry.smiles                             system.tested  endpoint  value.measured
1  O=C(c1cscn1)n1nc(NC2CCN(Cc3ccc4c(c3)OCO4)CC2)c2cc(Cl)ccc21  Melanin-concentrating hormone receptor 1 (Homo sapiens, UniProt Q99705)     pIC50            5.60
2  Clc1ccc2c(c1)c(NC1CCN(Cc3ccc4c(c3)OCO4)CC1)nn2Cc1ccncc1  Melanin-concentrating hormone receptor 1 (Homo sapiens, UniProt Q99705)     pIC50            6.25
3  Clc1ccc2c(c1)c(NC1CCN(Cc3ccc4c(c3)OCO4)CC1)nn2Cc1ccccc1  Melanin-concentrating hormone receptor 1 (Homo sapiens, UniProt Q99705)     pIC50            5.28
4  O=C(CN1CCOCC1)n1nc(NC2CCN(Cc3ccc4c(c3)OCO4)CC2)c2cc(Cl)ccc21  Melanin-concentrating hormone receptor 1 (Homo sapiens, UniProt Q99705)     pIC50            5.94

A = O=C(c1cccnc1)n1nc(NC2CCN(Cc3ccc4c(c3)OCO4)CC2)c2cc(Cl)ccc21
B = COc1cccc(CN2CCC(Nc3[nH]nc4ccc(Cl)cc34)CC2)c1
For the two items A and B , which reports the higher pIC50 value? Identify your pick by its label.
A
(A: 6.03, B: 5.35)

A = Clc1ccc(CN2CCC(Nc3[nH]nc4ccc(Cl)cc34)CC2)cc1
B = Clc1ccc2c(c1)c(NC1CCN(Cc3ccc4c(c3)OCO4)CC1)nn2Cc1cccnc1
C = O=[N+]([O-])c1ccc2[nH]nc(NC3CCN(Cc4ccc5c(c4)OCCO5)CC3)c2c1
Ascending sort, pIC50. Output the labels ranked as instructed.
A, C, B
(A: 5.21, C: 6.28, B: 6.54)

* * *

target: Melanin-concentrating hormone receptor 1 (Homo sapiens); assay: Functional antagonism of MCH-mediated calcium release by FLIPR using human MCHr1 from neuronal IMR32 cells; assay type: cell-based, IMR-32
endpoint: IC50 (µM)

Here's what some known entries look like.
> print(dat)
                               entry.smiles  endpoint  value.measured
1  N#Cc1ccc2[nH]nc(NC3CCN(Cc4ccc5c(c4)OCO5)CC3)c2c1      IC50             3.4
2  Clc1ccc2[nH]nc(NC3CCN(Cc4ccc5nsnc5c4)CC3)c2c1      IC50            4.91

1 = Clc1ccc2[nH]nc(NC3CCN(Cc4ccc5c(c4)OCCO5)CC3)c2c1
2 = Clc1ccc2c(c1)c(NC1CCN(Cc3ccc4ccccc4c3)CC1)nn2Cc1ccccn1
For the two items 1 and 2 , which reports the higher IC50 value? Identify your pick by its label.
1
(1: 1.89 µM, 2: 0.64 µM)

* * *

target: Melanin-concentrating hormone receptor 1 (Homo sapiens, UniProt Q99705); test: Functional antagonism of MCH-mediated calcium release by FLIPR using human MCHr1 from neuronal IMR32 cells; type: cell-based, IMR-32
pIC50: −log10 of the molar value.
endpoint: pIC50

P = O=[N+]([O-])c1ccc2[nH]nc(NC3CCN(Cc4ccc5c(c4)OCO5)CC3)c2c1
Q = O=[N+]([O-])c1ccc2c(c1)c(NC1CCN(Cc3ccc4c(c3)OCO4)CC1)nn2Cc1ccccc1
Between the entries labeled P and Q , whose measured pIC50 is lower? Identify your pick by its label.
Q

Cited source: ChEMBL document CHEMBL1141935
